Here we list compounds with their recorded GI50 when tested on 5K-MEL-5.
Return type: number; implicit unit nM.

### Prompt Find the recorded GI50 belonging to `COc1cc(-c2n[nH]nc2-c2cc(OC)c(OC)c(OC)c2)cc(OC)c1OC` and report it.
### Response 12.6

### Prompt And `COc1cc(-c2n[nH]nc2-c2ccc3ccccc3n2)cc(OC)c1OC` ?
### Response 26.7

* * *

Record: GI50 reported on SF-539.
Lab book: enter the figure in nM, no units written.

### Prompt Enter reported GI50 observed with SF-539 for `COc1cc(-c2n[nH]nc2-c2ccc3c(c2)OCCO3)cc(OC)c1OC`
### Response 181

### Prompt Request: `COc1cc(-c2n[nH]nc2-c2cc(OC)c(OC)c(OC)c2)cc(OC)c1OC`
### Response 20

### Prompt Queued: `COc1cc(-c2n[nH]nc2-c2ccc3ccccc3n2)cc(OC)c1OC`
### Response 13.8

* * *

System: HOP-62
Readout type: GI50 (nM)
Entry rule: numbers only, all in nM.

### Prompt Look up GI50 for this molecule: COc1ccc(-c2n[nH]nc2-c2cc(OC)c(OC)c(OC)c2)cc1 [Example 6]
### Response 18.2

### Prompt Then what about the molecule COc1cc(-c2n[nH]nc2-c2ccc3ccccc3n2)cc(OC)c1OC [Example 4] ?
### Response 25

### Prompt Next entry: COc1cc(-c2n[nH]nc2-c2cc(OC)c(OC)c(OC)c2)cc(OC)c1OC [Example 3]
### Response 46.7

### Prompt Param item: COc1cc(-c2n[nH]nc2-c2ccc3c(c2)OCCO3)cc(OC)c1OC [Example 7]
### Response 336

* * *

Tested on: COLO 205
Experiment: NCI 60 panel five-dose growth inhibition, Colon Cancer
Assay type: cell-based, human
Settings: COLO 205, Colon Cancer
Readout type: TGI (µM)
Field: numeric (µM). Do not append units.

### Prompt Give the measured TGI of COc1cc(-c2n[nH]nc2-c2cc(OC)c(OC)c(OC)c2)cc(OC)c1OC [Example 3] .
### Response 1.16

### Prompt Try this molecule next: COc1ccc(-c2n[nH]nc2-c2cc(OC)c(OC)c(OC)c2)cc1 [Example 6]
### Response 0.07

### Prompt Consider next the molecule COc1cc(-c2n[nH]nc2-c2ccc3c(c2)OCCO3)cc(OC)c1OC [Example 7] in the same way.
### Response 1.30

### Prompt Another molecule to look at: COc1ccc(-c2n[nH]nc2-c2cc(OC)cc(OC)c2)cc1 [Example 5]
### Response 0.12

### Prompt Another: COc1cc(-c2n[nH]nc2-c2ccc3ccccc3n2)cc(OC)c1OC [Example 4]
### Response 0.64

* * *

Tested on: DU-145
Readout type: GI50 (nM)
Write the number in nM without appending the unit.

### Prompt Test system DU-145; read-out GI50; what value for `COc1ccc(-c2n[nH]nc2-c2cc(OC)c(OC)c(OC)c2)cc1` ?
### Response 25

### Prompt Input `COc1cc(-c2n[nH]nc2-c2cc(OC)c(OC)c(OC)c2)cc(OC)c1OC`
### Response 26.6

### Prompt Note, next up: `COc1cc(-c2n[nH]nc2-c2ccc3c(c2)OCCO3)cc(OC)c1OC`
### Response 346

### Prompt Further, for `COc1cc(-c2n[nH]nc2-c2ccc3ccccc3n2)cc(OC)c1OC` ?
### Response 44.8

* * *

Measurement record for MDA-MB-468; quantity recorded: GI50.
# value in µM; strip the unit string

### Prompt Could you share which GI50 value was measured for COc1ccc(-c2n[nH]nc2-c2cc(OC)c(OC)c(OC)c2)cc1 [Example 6] ?
### Response 0.0147

### Prompt Same question, COc1cc(-c2n[nH]nc2-c2ccc3ccccc3n2)cc(OC)c1OC [Example 4] this time
### Response 0.0233

### Prompt Continue with COc1cc(-c2n[nH]nc2-c2cc(OC)c(OC)c(OC)c2)cc(OC)c1OC [Example 3]
### Response 0.0346

### Prompt COc1cc(-c2n[nH]nc2-c2ccc3c(c2)OCCO3)cc(OC)c1OC [Example 7] ?
### Response 0.226

* * *

System: HOP-62
Experiment: NCI 60 panel five-dose growth inhibition, Non-Small Cell Lung Cancer
Format: cell-based, human
Conditions: HOP-62, Non-Small Cell Lung Cancer
Readout type: TGI (µM)
Record the value in µM, omitting the unit from your answer.

### Prompt Need TGI of `COc1ccc(-c2n[nH]nc2-c2cc(OC)c(OC)c(OC)c2)cc1` , thanks.
### Response 19.3

### Prompt Cool, now `COc1ccc(-c2n[nH]nc2-c2cc(OC)cc(OC)c2)cc1`
### Response 72.4

* * *

Please provide measured TGI for the entries that follow.
System: SR
Test: NCI 60 panel five-dose growth inhibition, Leukemia
Assay type: cell-based, human

### Prompt If you can, please state the reported TGI value of `COc1cc(-c2n[nH]nc2-c2ccc3c(c2)OCCO3)cc(OC)c1OC` .
### Response 11.6 µM

### Prompt What about this molecule? `COc1cc(-c2n[nH]nc2-c2ccc3ccccc3n2)cc(OC)c1OC`
### Response 16.9 µM

### Prompt Next record, please: `COc1ccc(-c2n[nH]nc2-c2cc(OC)cc(OC)c2)cc1`
### Response >100 µM

### Prompt Next: `COc1ccc(-c2n[nH]nc2-c2cc(OC)c(OC)c(OC)c2)cc1`
### Response 24.0 µM

### Prompt What do we get for `COc1cc(-c2n[nH]nc2-c2cc(OC)c(OC)c(OC)c2)cc(OC)c1OC` ?
### Response >100 µM

* * *

Please consider the recorded GI50 for CAKI-1 in what follows.
Express your answer in nM, writing the number without its unit.

### Prompt Fill in the blank: the reported GI50 of `COc1cc(-c2n[nH]nc2-c2cc(OC)c(OC)c(OC)c2)cc(OC)c1OC` is ____.
### Response 42.6

### Prompt Thanks! And `COc1cc(-c2n[nH]nc2-c2ccc3ccccc3n2)cc(OC)c1OC` ?
### Response 50.2

### Prompt Also `COc1cc(-c2n[nH]nc2-c2ccc3c(c2)OCCO3)cc(OC)c1OC` ?
### Response 316

* * *

Hi there, I'd appreciate the recorded TGI for every entry that follows.
Tested on: SK-OV-3
Assay: NCI 60 panel five-dose growth inhibition, Ovarian Cancer
Type: cell-based, human
Settings: SK-OV-3, Ovarian Cancer
Kindly provide the numeric value in µM only, without the unit symbol.

### Prompt Quick one: TGI of COc1ccc(-c2n[nH]nc2-c2cc(OC)cc(OC)c2)cc1 [Example 5] ?
### Response 40.3

### Prompt // same read-out, input: COc1cc(-c2n[nH]nc2-c2cc(OC)c(OC)c(OC)c2)cc(OC)c1OC [Example 3]
### Response 97.7

### Prompt Next molecule up: COc1cc(-c2n[nH]nc2-c2ccc3c(c2)OCCO3)cc(OC)c1OC [Example 7]
### Response 93.2

### Prompt Now the molecule COc1ccc(-c2n[nH]nc2-c2cc(OC)c(OC)c(OC)c2)cc1 [Example 6]
### Response 12.7

* * *

Please provide measured TGI for the entries that follow.
Test system: NCI-H23
Experiment: NCI 60 panel five-dose growth inhibition, Non-Small Cell Lung Cancer
Assay type: cell-based, human
Output spec: scalar in µM, unitless text.

### Prompt Which measured TGI value corresponds to `COc1cc(-c2n[nH]nc2-c2ccc3ccccc3n2)cc(OC)c1OC` ?
### Response 27.9

### Prompt Item: `COc1ccc(-c2n[nH]nc2-c2cc(OC)cc(OC)c2)cc1`
### Response 68.7

### Prompt # iterate: `COc1ccc(-c2n[nH]nc2-c2cc(OC)c(OC)c(OC)c2)cc1`
### Response 41.7

* * *

Test system: A549/ATCC
Assay: NCI 60 panel five-dose growth inhibition, Non-Small Cell Lung Cancer
Format: cell-based, human
Settings: Homo sapiens
Assignment: determine reported GI50 for the given molecules.
Answer format: numeric, nM implied, no suffix.

### Prompt Need GI50, item COc1ccc(-c2n[nH]nc2-c2cc(OC)c(OC)c(OC)c2)cc1 [Example 6]
### Response 22.9

### Prompt Param item: COc1cc(-c2n[nH]nc2-c2ccc3ccccc3n2)cc(OC)c1OC [Example 4]
### Response 37.4

### Prompt Param item: COc1cc(-c2n[nH]nc2-c2ccc3c(c2)OCCO3)cc(OC)c1OC [Example 7]
### Response 289

### Prompt Would you mind doing COc1cc(-c2n[nH]nc2-c2cc(OC)c(OC)c(OC)c2)cc(OC)c1OC [Example 3] as well?
### Response 54.1

* * *

System: A498
Kindly state GI50 for each of the entries shown.
// note: answer is a bare numeric in nM

### Prompt If you can, please state the reported GI50 value of COc1cc(-c2n[nH]nc2-c2ccc3c(c2)OCCO3)cc(OC)c1OC [Example 7] .
### Response 343

### Prompt Subsequent entry: COc1cc(-c2n[nH]nc2-c2cc(OC)c(OC)c(OC)c2)cc(OC)c1OC [Example 3]
### Response 33.2

Source: patent US10239844B2
